# System: K562
# assay-name: NCI tumour cell line growth inhibition, 48 h
Active and inactive are the calls of the source. No stated cut-off is given here; in the data, active = GI50 up to about 1.1 µM and inactive = higher. Peptide text beside a SMILES is read from it. * marks the point of attachment. Cbz = O=C(OCc1ccccc1)*; OBn = c1ccc(CO*)cc1
Select the correct class. Options are True for active, False for inactive and nothing else.

-- ask For CC1C[C@H](OC(N)=O)C(C)CC1=O (some centres not stated) , which call appears in the assay record?
-- reply False

-- ask For COC(=O)CN1CCN(c2cccc3c2CCCC3)CC1 , which call appears in the assay record?
-- reply False

-- ask For COc1ccc(N2CCOCC2)cc1 , which call appears in the assay record?
-- reply False

-- ask For N#Cc1ccccc1-c1nc2c3c(c(N)ccc3n1)C(=O)c1ccccc1-2 , which call appears in the assay record?
-- reply False

-- ask For N#CC1CC2(CCN1C(=O)c1ccccc1)OCCO2 (configuration not stated) , which call appears in the assay record?
-- reply False

-- ask For C=C1CCC2(C(C)=O)COC1(C)O2 (configuration not stated) , which call appears in the assay record?
-- reply False

-- ask For Cc1cc(C)c2c(SCc3ccc(Cl)cc3Cl)nc(N)nc2n1 , which call appears in the assay record?
-- reply False

-- ask For COc1ccc(/C=N/NC(=O)c2cnc3[nH]c(=O)n(C)c(=O)c3c2)cc1 , which call appears in the assay record?
-- reply False

-- ask For COC(=O)CNC(=O)C(C)NC(=O)C(CC(=O)OCc1ccccc1)NC(=O)OCc1ccccc1 (stereo not drawn) (Cbz-Asp(OBn)-Ala-Gly-OMe; configuration not given here) , which call appears in the assay record?
-- reply False

-- ask For C#Cc1cc(Br)c(OC(=O)C(C)(C)C)c(-c2cc(C#C)cc(Br)c2OC(=O)C(C)(C)C)c1 , which call appears in the assay record?
-- reply False

-- ask For CCOC(=O)CSc1nnc(C(Sc2nc(-c3ccccc3)c(-c3ccccc3)[nH]2)C(C)C)n1-c1ccccc1 (configuration not stated) , which call appears in the assay record?
-- reply False

-- ask For CCOC(=O)c1nc2ccc(C(F)(F)F)cc2nc1Oc1cc(OC)cc(OC)c1 , which call appears in the assay record?
-- reply False

-- ask For Brc1ccccc1/C=C\C1(c2ccccc2)OCCO1 , which call appears in the assay record?
-- reply True

-- ask For CC1=NN(c2nc(N)nc(COc3ccc(N)cc3)n2)C(C)(C)C1 , which call appears in the assay record?
-- reply False

-- ask For CC(C)(c1cn(Cc2ccccc2)c2ccccc12)c1cn(Cc2ccccc2)c2ccccc12 , which call appears in the assay record?
-- reply False

-- ask For N=C(N)N/N=C(/c1ccccc1)c1ccc(O)cc1O , which call appears in the assay record?
-- reply False

-- ask For O=C(O)c1ccc2c(c1C(=O)O)C(=O)OC2(c1ccc(O)cc1)c1ccc(O)cc1 , which call appears in the assay record?
-- reply False

-- ask For CC(C)(C)N1C(=O)c2ccccc2C1(O)C(F)(F)F (configuration not stated) , which call appears in the assay record?
-- reply False

-- ask For O=C(Nc1cccc(Cl)c1)Nn1cnnc1 , which call appears in the assay record?
-- reply False

-- ask For CCOC(=O)C1=CC(C)(C(=O)OCC)Nc2c(nc(OC)n(C)c2=O)N1 (configuration not stated) , which call appears in the assay record?
-- reply False

-- ask For O=C(Nc1c(O)[nH]c(=S)[nH]c1=O)c1ccccn1 , which call appears in the assay record?
-- reply False

-- ask For CC1=C(NC(=O)/C(=N/NC(=S)NN)C2C(=O)CC(C)(C)CC2=O)C(=O)c2ccccc2C1=O , which call appears in the assay record?
-- reply False

* * *

# Tested on: OVCAR-4
# assay-name: NCI tumour cell line growth inhibition, 48 h
Activity calls are given as the source filed them. Rule as the data show it: active = GI50 up to about 1.1 µM and inactive = higher.
Select the correct class. Options are class 1 for active, class 0 for inactive and nothing else.

-- ask For N#CCC(=O)c1cc(OCc2cc(OCc3ccc(Br)cc3)cc(OCc3ccc(Br)cc3)c2)cc(OCc2cc(OCc3ccc(Br)cc3)cc(OCc3ccc(Br)cc3)c2)c1 , which call appears in the assay record?
-- reply class 0

-- ask For CC(C)(C)c1cc2nc(c1)C(C(F)(F)F)(C(F)(F)F)OB(Br)OC2(C(F)(F)F)C(F)(F)F , which call appears in the assay record?
-- reply class 1

-- ask For Nc1ccc2c(c1)C(=O)c1ccc(F)cc1-2 , which call appears in the assay record?
-- reply class 0

* * *

Read-out record for HCT-15: GI50

-- ask For the compound shown here, O=S(O)CCCCCSSCCCCSSCCCCCS(=O)O , give the reported GI50.
-- reply > 100 µM

-- ask For the compound shown here, CN1CCS(=O)(=O)NC(Cc2ccccc2)C(=O)N2CCCC2C1=O (stereo not given) , give the reported GI50.
-- reply > 100 µM

-- ask For the compound shown here, CC1C[C@H](OC(N)=O)C(C)CC1=O (stereo not given in full) , give the reported GI50.
-- reply > 100 µM

-- ask For the compound shown here, Nc1ncnc2sc(Nc3ccccc3)nc12 , give the reported GI50.
-- reply > 100 µM

-- ask For the compound shown here, CCOC(=O)C1C(=S)NC(=O)C1C#N (stereo not given) , give the reported GI50.
-- reply > 100 µM

* * *

Please respond with reported GI50 for every item in the list.
# Tested on: COLO 205
# assay-name: NCI tumour cell line growth inhibition, 48 h
Activity calls are given as the source filed them. No stated cut-off is given here; in the data, active = GI50 up to about 1.1 µM and inactive = higher.

-- ask For the compound shown here, C=CCSS/C=C/C[S+]([O-])CC=C (stereo not drawn) , give the reported GI50.
-- reply 24.7 µM (inactive)

-- ask For the compound shown here, CCCNCCCC(NC(C)=O)C(=O)NCc1ccccc1 (stereo not drawn) , give the reported GI50.
-- reply > 100 µM (inactive)

-- ask For the compound shown here, O=C1N=C2SC=C(NC(=S)Nc3ccccc3)N2NC12c1ccccc1-c1ccccc12 , give the reported GI50.
-- reply > 10 µM (inactive)

-- ask For the compound shown here, CN(C)C(CN)CC1=C(CC(CN)N(C)C)CCC1 (stereo not drawn) , give the reported GI50.
-- reply > 100 µM (inactive)

-- ask For the compound shown here, CC1=NN(C(=O)c2ccc(Cl)cc2)C(=O)/C1=C/c1ccco1 , give the reported GI50.
-- reply > 100 µM (inactive)

-- ask For the compound shown here, Cc1nc(-c2ccc([N+](=O)[O-])cc2)cn2c1nc1ccccc12 , give the reported GI50.
-- reply > 100 µM (inactive)

-- ask For the compound shown here, CC(SC(=O)Nc1ccc(/N=N/c2ccccc2)cc1)C(=O)O (stereo not drawn) , give the reported GI50.
-- reply > 100 µM (inactive)

-- ask For the compound shown here, C[n+]1ccccc1/C=C/c1ccc2c(c1)OCO2 , give the reported GI50.
-- reply 4.55 µM (inactive)

-- ask For the compound shown here, CCCCN(CCCC)c1ccc(/N=N/c2ccc(S(=O)(=O)O)cc2)cc1 , give the reported GI50.
-- reply 18.7 µM (inactive)

-- ask For the compound shown here, CC1C=C(NCC2(CO)CCC2)N=C(N)N1 (stereo not drawn) , give the reported GI50.
-- reply > 100 µM (inactive)

-- ask For the compound shown here, CC1=NN(c2ccccc2)C(=O)/C1=C\c1ccc([N+](=O)[O-])cc1 , give the reported GI50.
-- reply 17.7 µM (inactive)

-- ask For the compound shown here, O=C1NC(=O)C(Cc2ccccc2)(c2cccnc2)N1 (stereo not drawn) , give the reported GI50.
-- reply > 100 µM (inactive)

-- ask For the compound shown here, CC(C)(C)OC1=C(OC(C)(C)C)C(O)(c2ccccc2)C1=O (stereo not drawn) , give the reported GI50.
-- reply > 100 µM (inactive)

-- ask For the compound shown here, CNC(=O)OCc1nc(SSc2nc(COC(=O)NC)c(COC(=O)NC)n2C)n(C)c1COC(=O)NC , give the reported GI50.
-- reply > 100 µM (inactive)

-- ask For the compound shown here, Cc1oc2nc(N(C)C)n3c(C)nnc3c2c1C , give the reported GI50.
-- reply > 100 µM (inactive)

-- ask For the compound shown here, O=S(O)CCCCCSSCCCCSSCCCCCS(=O)O , give the reported GI50.
-- reply > 100 µM (inactive)

-- ask For the compound shown here, COc1ccc(NC(=S)Nc2cc(C)ccn2)cc1 , give the reported GI50.
-- reply > 100 µM (inactive)

-- ask For the compound shown here, Nc1ccc2c(c1)C(=O)c1ccc(F)cc1-2 , give the reported GI50.
-- reply > 100 µM (inactive)

-- ask For the compound shown here, CSc1ncc2c(n1)-c1ccccc1OC2N1CCCC1 (stereo not drawn) , give the reported GI50.
-- reply > 100 µM (inactive)

-- ask For the compound shown here, CCN(CC)CCN1C(=O)C(=O)N(c2cccc3ccccc23)C1=O , give the reported GI50.
-- reply > 10 µM (inactive)

-- ask For the compound shown here, Fc1ccccc1C1SCc2nc3ccccc3n21 (stereo not drawn) , give the reported GI50.
-- reply 77.3 µM (inactive)

-- ask For the compound shown here, COc1cc(CCc2ccc(OC(C)=O)cc2)cc(OC)c1OC , give the reported GI50.
-- reply > 100 µM (inactive)

-- ask For the compound shown here, C[N+]1(C)CCCC1C(=O)[O-] (stereo not drawn) , give the reported GI50.
-- reply > 100 µM (inactive)

-- ask For the compound shown here, O=C1Cc2ccccc2CCc2ccccc21 , give the reported GI50.
-- reply > 100 µM (inactive)

-- ask For the compound shown here, N#C/C(=C\c1ccccc1)C(NO)Nc1ccccc1 (stereo not drawn) , give the reported GI50.
-- reply 45.3 µM (inactive)

-- ask For the compound shown here, CCOc1ccccc1NC(=O)CCC(=O)OC , give the reported GI50.
-- reply > 58.2 µM (inactive)

-- ask For the compound shown here, N#CI1OC(=O)c2ccccc21 , give the reported GI50.
-- reply > 100 µM (inactive)

-- ask For the compound shown here, O=C1C=CC(=CC=C2C=CN(CCCCCCCCCCC(=O)NCCCCCCCCCCCC(=O)O)C=C2)C=C1 , give the reported GI50.
-- reply > 100 µM (inactive)

-- ask For the compound shown here, N/C(=N\N=C\c1nc2ccccc2o1)c1cnccn1 , give the reported GI50.
-- reply > 100 µM (inactive)

-- ask For the compound shown here, COC(=O)[C@]1(NC(=O)c2ccccc2)C[C@H]1C=O , give the reported GI50.
-- reply > 100 µM (inactive)

-- ask For the compound shown here, Nc1ncnc2sc(Nc3ccccc3)nc12 , give the reported GI50.
-- reply > 100 µM (inactive)

-- ask For the compound shown here, CC(=O)Oc1ccc2c(c1)[nH]c1c3ccc(OC(C)=O)cc3oc(=O)c21 , give the reported GI50.
-- reply 30.7 µM (inactive)

-- ask For the compound shown here, C[N+](C)(C)/C=N\c1cccc2nsnc12 , give the reported GI50.
-- reply > 100 µM (inactive)
